target: rat VEGF-R2 kinase domain (Rattus norvegicus); construct: amino acids 786-1343 of the rat VEGF-R2 kinase domain; polyhistidine (N); assay: VEGF-R2 Screening Assay; format: biochemical; details: IC50 VEGF-R2
Sequence (O08775 786-1343): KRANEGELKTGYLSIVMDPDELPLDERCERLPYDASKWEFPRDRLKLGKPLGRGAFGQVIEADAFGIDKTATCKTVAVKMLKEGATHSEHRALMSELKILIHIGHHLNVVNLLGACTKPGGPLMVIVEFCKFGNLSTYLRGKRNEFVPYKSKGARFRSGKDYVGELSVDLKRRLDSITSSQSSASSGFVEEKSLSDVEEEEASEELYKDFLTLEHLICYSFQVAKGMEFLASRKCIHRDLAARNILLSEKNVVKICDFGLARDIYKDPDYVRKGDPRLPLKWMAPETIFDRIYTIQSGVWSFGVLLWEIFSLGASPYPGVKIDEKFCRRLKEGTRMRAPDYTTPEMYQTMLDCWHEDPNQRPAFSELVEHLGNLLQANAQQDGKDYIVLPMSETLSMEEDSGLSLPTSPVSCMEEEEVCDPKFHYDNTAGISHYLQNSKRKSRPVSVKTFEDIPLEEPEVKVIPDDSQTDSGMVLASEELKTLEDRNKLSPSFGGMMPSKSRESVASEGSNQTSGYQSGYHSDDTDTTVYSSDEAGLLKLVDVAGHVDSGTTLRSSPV
Measurement label: IC50 (nM)
Dear colleague, please return just the value in nM, with no unit written.

Ask: Requested read-out IC50, target or system rat VEGF-R2 kinase domain (Rattus norvegicus), entry CNC(=O)Cc1ccc(Oc2ncnc(N)c2C=NOC)cc1
Result: 19700

Ask: Recall the recorded IC50 for CCCNC(=O)Nc1ccc(Oc2ncnc(N)c2C=NOC)cc1Cl with rat VEGF-R2 kinase domain (Rattus norvegicus) and state it.
Result: 27.5

Ask: Recorded IC50 for CON=Cc1c(N)ncnc1Oc1ccc(NC(=O)Nc2ccccc2F)c(Cl)c1 with rat VEGF-R2 kinase domain (Rattus norvegicus), please?
Result: 3.3

Ask: API: value(readout=IC50, system=rat VEGF-R2 kinase domain (Rattus norvegicus)) for record CON=Cc1c(N)ncnc1Oc1ccc(NC(=O)Nc2ccncc2)c(Cl)c1
Result: 11

Ask: # get_value(readout= IC50, system= rat VEGF-R2 kinase domain (Rattus norvegicus)) for CON=Cc1c(N)ncnc1Oc1ccc(NC(=O)NCCCO)c(Cl)c1
Result: 400
